Origin of values: PubChem BioAssay (NCI)

# Lookup of reported TGI keyed by entry
system: OVCAR-5 ovarian; assay: NCI tumour cell line growth inhibition, 48 h
readout: TGI (µM)

>>> observedmeasurement("COc1ccc2c(c1)C(=O)c1c-2c(OCCN(C)C)nc2cc(OC)c(OC)cc12")
55.9
>>> observedmeasurement("CC(Cn1c2c(c3cc(O)ccc31)CCc1ccc(O)cc1-2)N(C)C (stereo not given)")
37.2
>>> observedmeasurement("O=[N+]1[C@H](c2ccccc2)[C@H](c2ccccc2)N1[O-]")
35.8
>>> observedmeasurement("Cc1cc(Cl)ccc1NC(=O)C1C(=O)N(c2ccc(Cl)cc2C)C(=O)/C1=N\\NC(N)=S (stereo not given)")
53.9

---

system: UACC-257 melanoma; test: NCI tumour cell line growth inhibition, 48 h; in the data active means GI50 below about 0.43 µM; inactive means the rest
Possible outcomes: 1 (yes) = active, 0 (no) = inactive

>>> grouplabel("COc1ccc(-c2cc(/C=C/C(=O)c3ccc(N)cc3)[nH]n2)cc1")
"0 (no)"
>>> grouplabel("CC[C@H]1OC(=O)[C@H](C)[C@@H](O[C@H]2C[C@@](C)(OC)[C@@H](O)[C@H](C)O2)[C@H](C)[C@@H](O[C@@H]2O[C@H](C)C[C@H](N(C)C)[C@H]2O)[C@](C)(OC)C/C(C)=C2/O[C@@]1(C)C=C2C")
"0 (no)"
>>> grouplabel("CC(C)OP(=O)(O)c1ncc(-c2ccc(C(F)(F)F)cc2)c(NC2CCCCCC2)n1")
"0 (no)"
>>> grouplabel("CCOc1ccc2cc(-c3nn(CC4CCNCC4)c4ncnc(N)c34)ccc2c1")
"0 (no)"
>>> grouplabel("COc1ccc2c(c1OC)O/C(=C\\c1ncc([N+](=O)[O-])n1C)C2=O")
"0 (no)"
>>> grouplabel("N#Cc1cc(S(=O)(=O)Nc2nc3cc(Cl)ccc3o2)c(SCc2ccccc2)cc1Cl")
"0 (no)"
>>> grouplabel("CCOC(=O)c1c(CN2CCN(C)CC2)nc2ccc(Cl)cc2c1-c1ccccc1")
"0 (no)"
>>> grouplabel("Nc1ccccc1C#Cc1ccccc1C#Cc1cccs1")
"0 (no)"
>>> grouplabel("CCOC(=O)/C(=C\\c1ccc2ccccc2c1)P(=O)(OCC)OCC")
"0 (no)"
>>> grouplabel("OCC(O)C(O)C(O)C(O)c1nnc2c(-c3ccccc3)nc3ccccc3n12 (stereo unspecified)")
"0 (no)"
>>> grouplabel("COCC(C(=O)OC1C/C=C/C=C/C(=O)OC(C(C)C(O)C(C)CCC(OC(=O)C(C)N(C)C)C(C)C(OC(C)=O)C(C)/C=C/N(C)C=O)C/C=C/C(OC)CC(C)C/C=C(\\C)C(OC)CCC(C)C(O)C1C)N(C)C (stereo unspecified)")
"1 (yes)"

---

# Lookup of reported TGI keyed by entry
test system: HOP-92 NSCLC; test: NCI tumour cell line growth inhibition, 48 h
readout: TGI

>>> observedmeasurement("COc1cc(-c2nn(-c3cccc(NC(=O)CCNc4ccc(N5CCOCC5)cc4)c3)cc2-c2ccncc2)ccc1Cl")
"8.01 µM"
>>> observedmeasurement("C=C1C[C@@H]2O[C@H]3[C@H]4[C@@H](CC[C@@](C)(OC(=O)CCC)[C@H]42)[C@@H](C)C(=O)O[C@@]3(C)CC[C@H]1OO")
"26 µM"
>>> observedmeasurement("CN(N=O)c1nc2c(C(N)=O)ncn2s1")
"> 100 µM"
>>> observedmeasurement("COc1ccc2[nH]c3c(c2c1)[C@H]1CCC(C(C)(C)C)C[C@H]1[C@H]1C(=O)N(c2ccccc2)C(=O)[C@@H]31 (some centres undefined)")
"21 µM"
>>> observedmeasurement("O=c1oc2c3ccc4ccccc4c3n(CCN3CCCCC3)c2c2ccccc12")
"> 100 µM"
>>> observedmeasurement("Cc1ccc(S(=O)(=O)N2CCSCCSCCSCCN(S(=O)(=O)c3ccc(C)cc3)CC2)cc1")
"> 100 µM"
>>> observedmeasurement("O=C1NC2(CCNCC2)Oc2ccccc21")
"> 100 µM"
>>> observedmeasurement("Cc1ccc2nc(NS(=O)(=O)c3cc(C)c(Cl)cc3S)[nH]c2c1")
"> 100 µM"
>>> observedmeasurement("O=C1OC(=O)C([Se]c2ccccc2)=C1[Se]c1ccccc1")
"> 100 µM"
